test system: gene editing with Cas9; assay: Screen of 322 new SSAP proteins, gene editing activity with Cas9 (Table 5); format: cell-based; conditions: normalized

molecule | Cas9 with SSAP activity (normalized)
SSAP_174: SEQ ID NO: 343; Hespellia stercorisuis (protein, listed as Hespellia stercorisuis) ADIKEELAKKVAEGTEDKKKLTKSMSIADLIKAMEPEIKKALPEVITPERFTRMALSALNTTPKLKECTQTSFLTALMNAAQLGLEPNTPLGQAYLIPYKNKGNLECQFQIGYKGLIDLSYRNRQMQIIQAQAVYENDEFEYELGLNPVLVHRPALQNRGAVKLFYGIFKLTNGGFGFEVMSKADMDAYAKEYSKAFDSSFSPWKSNYIGMAKKTVIKQAIKYAPLKTDFRKALSTDETIKTEFCEDMSEVQCKDIWDTEYKERSA | −0.617
SSAP_179: SEQ ID NO: 348; Acetoanaerobium noterae (protein, listed as Acetoanaerobium noterae) SNLKNELAKKANNSVTDGNKEPQTIKDWIKVMEPAIKKALPSVITPERFTRMALTAISVNPKLAECTPKSFMGSLMNAAQLGLEPNTPLGQAYLIPYKNKGNMEVQFQIGYKGLIELAYRSGEFANIYAKEVFENDEFEYEFGLEPVLKHKPASGNRGEVIAYYAVFKLTNGGFGFEVMSKEDITNHAKTYSQAYSSSYSPWSKNFDEMAKKTVLKKVLKYAPIKVEFVKQIVQDSTIKTEINSDMTEVESQNVFEAEETDYEVIDQEETK | −0.748
